Would you kindly list EC50 for each of these binders?
- target.or.test.system: T1, recombinant human PD-1-his protein (human, UniProt Q15116 25-167)
- T1 construct: also called hPD-1-his; not shown: his tag
- T1 sequence (Q15116 25-167 limits assumed): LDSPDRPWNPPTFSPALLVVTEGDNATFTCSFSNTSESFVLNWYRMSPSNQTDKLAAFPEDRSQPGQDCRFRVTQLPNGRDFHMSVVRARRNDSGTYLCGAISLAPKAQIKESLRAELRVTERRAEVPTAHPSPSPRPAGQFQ
- experiment.summary: ELISA (second round of humanization); PD-1-his coated 2 µg/mL, anti-human IgG Fc-HRP
Quick note: give the figure in nM, leave out the unit.

query: Item MHPD1-A-H14 Fc (Fc fusion, not shown: a dimerising Fc or GST; small tags and cut ends, Second round of humanization of MHPD1-A; also called humanized nanobody-Fc fusion protein) VHH: QVQLVESGGGSVQPGGSLRLSCAASGSDPSIYAMGWFRQAPGKEHEFVAGIGWSAATTYYADSVKGRFGISRDNTKNTVYLQMNSLRAEDTAIYYCAADLDHSGFDYWGQGTLVTVSS has what recorded EC50?
result: 1.88

query: Item MHPD1-A-H12 Fc (Fc fusion, not shown: a dimerising Fc or GST; small tags and cut ends, Second round of humanization of MHPD1-A; also called humanized nanobody-Fc fusion protein) VHH: QVQLVESGGGSVQPGGSLRLSCAASGSDPSIYAMGWFRQAPGKEHEFVAGIGWSAATTYYADSVKGRFTISRDNTKNTLALLMNSLRAEDTAIYYCAADLDHSGFDYWGQGTLVTVSS has what recorded EC50?
result: 4.32

Source: patent US20240309093A1
